This collection of values is drawn from ChEMBL document CHEMBL4627375.

pIC50: −log10 of the molar value.
Let's go through some recorded pIC50 values for Maternal embryonic leucine zipper kinase (Homo sapiens, UniProt Q14680) together.

Some entries whose results are on file:
>>> result("N=C(N)N/N=C/c1cccc(Cl)c1Cl")
"6.30 to 6.70"
>>> result("CNC(=O)COc1cc2cc(Nc3nc(N4C[C@H](C)C[C@H](C)C4)ncc3Cl)ccc2n(C)c1=O")
"6.30 to 6.70"

Incoming: Identify measured pIC50 associated with COc1ccc(/C=C2\SC(=S)NC2=O)cc1C#C[Si](C)(C)C
Outgoing: 6.30 to 6.70
